tested on: Vero E6 infected with SARS-CoV-2; assay: inhibition of SARS-CoV-2 cytopathic effect; higher = more antiviral protection, active = above 15; details: 100 nM; 48 h
Structures can show the parent of a compound that is named as a salt.
measured.parameter: inhibition of SARS-CoV-2 cytopathic effect (%)

| molecule | units.text | reported |
| --- | --- | --- |
| CC(=O)OCC1=C(C(=O)O)N2C(=O)[C@@H](NC(=O)CS/C(=N/C(C)C)NC(C)C)[C@H]2SC1 | % | 1.14 |
| O=C1N=C2SCCN2C(=O)C1Cc1ccc(Cl)cc1 (stereo not given) | % | 0.26 |
| CC(C)(C)c1nc(-c2cccc(NS(=O)(=O)c3c(F)cccc3F)c2F)c(-c2ccnc(N)n2)s1 | % | 0.25 |
| O=C(O)[C@H](Cc1ccc(Nc2nccc3ccncc23)cc1)NC1=C(Br)C(=O)C12CCCCC2 | % | -0.71 |
| N#CCNC(=O)c1ccc(-c2ccnc(Nc3ccc(N4CCOCC4)cc3)n2)cc1 | % | -0.33 |
| CC(=O)O[C@H]1C[C@@H]2CC[C@@H]3[C@H](CC[C@@]4(C)[C@H]3C[C@H](N3CC[N+](C)(C)CC3)[C@@H]4OC(C)=O)[C@@]2(C)C[C@@H]1N1CC[N+](C)(C)CC1 | % | -0.11 |
| COc1cccc2c1C(=O)c1c(O)c3c(c(O)c1C2=O)C[C@@](O)(C(=O)CO)C[C@@H]3O[C@H]1C[C@H](N)[C@@H](O)[C@H](C)O1 [Epirubicin Hydrochloride] | % | 0.605 |
| CCc1c(-c2ccccc2)c(-c2ccccc2)nn1-c1ccccc1-c1cccc(OCC(=O)O)c1 | % | 0.2 |
| COC(=O)c1c(C)[nH]c(C)c1C(=O)c1ccccc1Cc1ccccc1 | % | 0.4 |
| COc1cc(C)c(/C=C/C(C)=C/C=C/C(C)=C/C(=O)O)c(C)c1C | % | 0.02 |
| CC(=O)Nc1c(I)cc(I)c(C(=O)O)c1I | % | -0.88 |
| C[C@H](/C=C/[C@H](C)C(C)(C)O)[C@H]1CC[C@H]2/C(=C/C=C3C[C@@H](O)C[C@H](O)C3)CCC[C@]12C | % | -0.2 |
| CCCCC1(COC(=O)CCC(=O)O)C(=O)N(c2ccccc2)N(c2ccccc2)C1=O | % | -2.21 |
| CN1C(CSCC(F)(F)F)Nc2cc(Cl)c(S(N)(=O)=O)cc2S1(=O)=O (stereo not given) [polythiazide] | % | 3.31 |
| CO/N=C1/C[C@@H](C(=O)NC[C@@H](O)c2ccccc2)N(C(=O)c2ccc(-c3ccccc3C)cc2)C1 | % | -0.48 |

Source: the supplement of paper PMC13380429
